Collected Survivors values appear next to each entry.
tested on: human MX-1 mammary tumor (ic, 10^6 cells); experiment: In vivo antitumor activity, i.c.-implanted MX-1 xenograft; conditions: optimal doses (LD10 or less), schedule QD1-5, administered LP.
readoutKind: Survivors

compound="COc1nc(C(Cl)(Cl)Cl)c(Cl)c(OC(=O)c2cccs2)c1Cl [DM-TC-PEN]" recordedvalue=0/5
compound="COc1nc(C(Cl)(Cl)Cl)c(Cl)c(OC)c1Cl [PEN]" recordedvalue=0/5
compound="COCC(=O)Oc1c(Cl)c(OC)nc(C(Cl)(Cl)Cl)c1Cl [DM-MA-PEN]" recordedvalue=1/5
compound="COc1nc(C(Cl)(Cl)Cl)c(Cl)c(O)c1Cl [DM-PEN]" recordedvalue=0/5
compound="CCCCCCCC(=O)Oc1c(Cl)c(OC)nc(C(Cl)(Cl)Cl)c1Cl [DM-O-PEN]" recordedvalue=0/5
compound="COc1nc(C(Cl)(Cl)Cl)c(Cl)c(OC(=O)c2ccco2)c1Cl [DM-F-PEN]" recordedvalue=2/5

----------
Collected T-C values appear next to each entry.
system: human MX-1 mammary tumor (sc, 30-40 mg fragments); assay: In vivo antitumor activity, s.c.-implanted MX-1 xenograft; set-up: species or system Athymic mice (Ncr-nu); conditions: IP 90 mg/kg/dose, Days 12-16
readoutKind: T-C

givensmiles=COc1nc(C(Cl)(Cl)Cl)c(Cl)c(OC(=O)c2ccc([N+](=O)[O-])o2)c1Cl targetundertest="human MX-1 mammary tumor (sc, 30-40 mg fragments)" readoutkind=T-C recordedvalue=">41.2 days"
givensmiles=COc1nc(C(Cl)(Cl)Cl)c(Cl)c(OC(=O)c2ccncc2)c1Cl targetundertest="human MX-1 mammary tumor (sc, 30-40 mg fragments)" readoutkind=T-C recordedvalue=">38.6 days"
givensmiles=COc1nc(C(Cl)(Cl)Cl)c(Cl)c(OC(C)=O)c1Cl targetundertest="human MX-1 mammary tumor (sc, 30-40 mg fragments)" readoutkind=T-C recordedvalue=">41.0 days"
givensmiles=COc1nc(C(Cl)(Cl)Cl)c(Cl)c(OC(=O)c2ccco2)c1Cl targetundertest="human MX-1 mammary tumor (sc, 30-40 mg fragments)" readoutkind=T-C recordedvalue=">41.2 days"
givensmiles=COc1nc(C(Cl)(Cl)Cl)c(Cl)c(OC(=O)c2cccs2)c1Cl targetundertest="human MX-1 mammary tumor (sc, 30-40 mg fragments)" readoutkind=T-C recordedvalue=">41.2 days"
givensmiles=COc1nc(C(Cl)(Cl)Cl)c(Cl)c(OC(=O)Cc2cccs2)c1Cl targetundertest="human MX-1 mammary tumor (sc, 30-40 mg fragments)" readoutkind=T-C recordedvalue=">41.2 days"

----------
test system: human MX-1 mammary tumor (sc, 30-40 mg fragments); assay: In vivo antitumor activity, s.c.-implanted MX-1 xenograft; set-up: species or system Athymic mice (Ncr-nu); conditions: IP 90 mg/kg/dose, Days 12-16
Collected Tumor-Free-Surv/Total values appear next to each entry.
readoutKind: Tumor-Free-Surv/Total

givensmiles=COc1nc(C(Cl)(Cl)Cl)c(Cl)c(OC(=O)c2ccc([N+](=O)[O-])o2)c1Cl recordedvalue=4/5
givensmiles=COc1nc(C(Cl)(Cl)Cl)c(Cl)c(OC(C)=O)c1Cl recordedvalue=5/5
givensmiles=COc1nc(C(Cl)(Cl)Cl)c(Cl)c(OC(=O)Cc2cccs2)c1Cl recordedvalue=3/5
givensmiles=COc1nc(C(Cl)(Cl)Cl)c(Cl)c(OC(=O)c2ccco2)c1Cl recordedvalue=5/5
givensmiles=COc1nc(C(Cl)(Cl)Cl)c(Cl)c(OC(=O)c2cccs2)c1Cl recordedvalue=4/5
givensmiles=COc1nc(C(Cl)(Cl)Cl)c(Cl)c(OC(=O)c2ccncc2)c1Cl recordedvalue=3/5

----------
system: human MX-1 mammary tumor (ic, 10^6 cells); test: In vivo antitumor activity, i.c.-implanted MX-1 xenograft; conditions: oral (gavage) 135 mg/kg/dose, Days 1-5
Collected Tumor-Free-Surv/Total values appear next to each entry.
readoutKind: Tumor-Free-Surv/Total

molecule="COc1nc(C(Cl)(Cl)Cl)c(Cl)c(OC(=O)COC(C)=O)c1Cl [DM-AA-PEN]" recordedvalue=2/5
molecule="COc1nc(C(Cl)(Cl)Cl)c(Cl)c(OC(=O)C(C)(C)C)c1Cl [DM-P-PEN]" recordedvalue=0/5
molecule="COc1nc(C(Cl)(Cl)Cl)c(Cl)c(OC(=O)CCl)c1Cl [DM-CA-PEN]" recordedvalue=2/5
molecule="COc1nc(C(Cl)(Cl)Cl)c(Cl)c(OC(=O)c2ccccc2)c1Cl [DM-B-PEN]" recordedvalue=0/5

Values compiled from patent US6495571B1.
